Field Ki: reported value for Prothrombin (Homo sapiens, UniProt P00734); entries drawn from several documents.
readout kind: Ki (nM)

Sample records with Ki:
{"compound": "CC[C@@H]1Cc2cc(C)n(CC(=O)NCc3ccc(N)nc3C)c(=O)c2NC1=O", "assay system": "Prothrombin (Homo sapiens, UniProt P00734)", "Ki, nM": 1.6}
{"compound": "Cc1cc(OCCCONC(=N)N)cc(OS(=O)(=O)c2ccccc2C#N)c1", "assay system": "Prothrombin (Homo sapiens, UniProt P00734)", "Ki, nM": 9.9}
{"compound": "N=C(N)c1ccc(/C=C2\\CCCCC/C(=C\\c3ccc(C(=N)N)cc3)C2=O)cc1", "assay system": "Prothrombin (Homo sapiens, UniProt P00734)", "Ki, nM": 2100}
{"compound": "CC(C)(C)[C@@H](O)C(=O)N1CCC[C@H]1C(=O)NCc1cc(Cl)ccc1CN.O=C(O)C(F)(F)F", "assay system": "Prothrombin (Homo sapiens, UniProt P00734)", "Ki, nM": 1.5}

P = CS(=O)(=O)N[C@@H](C(=O)N1CCC[C@H]1C(=O)NCc1ccc(C(=N)N)cc1)C1CCCCC1
Q = CS(=O)(=O)N[C@@H](C(=O)N1CCC[C@H]1C(=O)NCc1ccc(C(=N)N)s1)C(c1ccccc1)c1ccccc1.N=C(N)c1ccccc1
R = Nc1ccc(C[C@H](NS(=O)(=O)c2cnccc2N[C@@H](Cc2ccccc2)CN2CCC(O)CC2)C(=O)N2CCC(CCF)CC2)cc1
S = COC(=O)CC(CCCCc1ccc(N=C(N)N)cc1)c1cccc(C(=N)N)c1 (stereo not drawn)
## Task Please give the order of these compounds when sorted by Ki, largest value leading. Write out the labels following the order that was asked for.
## Result S, R, P, Q
(S: 3300 nM, R: 19 nM, P: 0.5 nM, Q: 0.005 nM)

* * *

pKi values for Prothrombin (Homo sapiens, UniProt P00734), compiled from several publications.
pKi: −log10 of the molar value.
readout kind: pKi

Below, 3 molecules whose answers are already recorded.
{"molecule": "N=C(N)NOCCCOc1cc(Cl)cc(C(=O)N2CCN(c3ccccn3)CC2)c1", "pKi": 6.19}
{"molecule": "Nc1cc(C[C@H](NS(=O)(=O)c2cnccc2N[C@H](CO)Cc2ccccc2)C(=O)N2CCC(CCF)CC2)ccc1O", "pKi": 7.59}
{"molecule": "CC1(C)C[C@@H](C(=O)NCc2ccc(C(=N)N)cc2)n2c1c(Cl)nc(NC1(CO)CCCC1)c2=O", "pKi": 6.42}

a = N=C(N)N1CCC[C@@H](CNC(=O)[C@@H](Cc2ccc([N+](=O)[O-])cc2)NS(=O)(=O)c2ccc3ccccc3c2)C1
b = CC(C)CC1NCCc2ccc(NC(=O)c3ccc4cc(C(=N)N)ccc4c3)cc21 (configuration not stated)
## Task pKi comparison. Which is larger, a or b ? // caller expects the label of the chosen entry
## Result a

1 = N=C(N)NS(=O)(=O)c1ccc(NC(=O)[C@@H](Cc2ccccc2)NC(=O)OCc2ccccc2)cc1
2 = Nc1noc2ccc(-n3nc(C(F)(F)F)cc3C(=O)Cc3ccc(-c4ccccc4CN4CCCC4)cc3)cc12
## Task Please tell me which of the two, 1 or 2 , has the higher reported pKi value. State your choice using its label.
## Result 1

* * *

Collected literature values of Ki measured for UniProt P00734.
readout kind: Ki (nM)

{"molecule": "NC(N)=NCCCC(NC(=O)[C@@H]1CCCN1C(=O)C(N)C(c1ccccc1)c1ccccc1)C(=O)CCC(=O)N1CCCCC1.O=C(O)C(F)(F)F.O=C(O)C(F)(F)F (stereo not given in full)", "result unit": "nM", "Ki": 600}

P = NCCCC[C@H](NC(=O)CN(C(=O)CCc1ccccc1)C1CCCCC1)B(O)O
Q = N=C(N)c1ccc(C(=O)NCCOc2cc(C(=N)N)ccc2CC(=O)C(=O)O)cc1
## Task Field: entry with larger Ki (options P / Q ). Could you answer with the label of the item you picked?
## Result Q

* * *

Here's a roundup of pKi values tested on UniProtKB P00734, taken from various published works.
pKi: −log10 of the molar value.
readout kind: pKi

See these solved cases before continuing.
{"compound": "O=C(NC1CCN(C2CC2)CC1)c1cc2ccccc2n1Cc1cc(-c2ccc(Cl)s2)on1", "pKi": 5.09}
{"compound": "COc1cc([C@@H]2Nc3ccc(C(=N)N)cc3[C@H]3c4ccccc4C[C@H]32)c(-c2ccc(C(=O)O)cc2)cc1O (racemic)", "pKi": 5.74}
{"compound": "N=C(N)c1cccc(Cn2c(C(=O)NCc3cc(F)cc(C(F)(F)F)c3)cc3c(O)cccc32)c1", "pKi": 5.77}

1 = CNc1ncc(C#CC[C@H](NS(=O)(=O)c2ccc3ccccc3c2)C(=O)N(C)C2CCCC2)cn1
2 = N=C(N)c1ccc(C(=O)NCCOc2cccc(C(=N)N)c2)cc1
3 = COC(=N)NS(=O)(=O)c1cccs1
4 = O=C1Cn2c(Cl)cnc(c2=O)N[C@@H](Cc2ccccc2)CNCCCCCOc2ccccc2CN1
## Task Please list these in order of increasing pKi. Thank you! Would you mind listing the labels in the order requested?
## Result 2, 1, 3, 4

* * *

Please find below Ki data on Prothrombin (Homo sapiens) compiled from the literature.
readout kind: Ki (nM)

a = N=C(N)N1CCCC(C[C@H](NC(=O)CN2C(=O)CN(CCCc3ccccc3)C(=O)[C@@H]2CCc2ccccc2)C(=O)c2nccs2)C1 (some centres undefined)
b = N=C(N)c1ccc(CNC(=O)[C@@H]2CCCN2CCC2CCCCC2)cc1
c = O=S(=O)(NCCc1cccc(OCCNc2ccncc2)c1)c1ccc(Cl)cc1
## Task Quick one: which order do the items above go in by Ki, smallest to largest? Rank them, then answer with their labels in that order.
## Result a, c, b
(a: 105 nM, c: 2800 nM, b: 20000 nM)

* * *

pKi: −log10 of the molar value.
This section presents pKi values reported for Prothrombin (Homo sapiens) in the literature.
readout kind: pKi

Examples with answers:
{"compound": "C[C@H](NC(=O)CNC(=O)Nc1ccc(C(=N)N)cc1)c1ccc2c(c1)OCCO2", "pKi": 4.95}
{"compound": "N=C(N)c1ccc(CCC(=O)c2cccc(C(=N)N)c2)cc1", "pKi": 5.36}
{"compound": "CC1(C)CNc2c(cccc2S(=O)(=O)N[C@@H](Cc2nc3ccccc3s2)C(=O)N2CCC(CCNC(=O)OC(C)(C)C)CC2)C1", "pKi": 7.28}
{"compound": "CC1(C)C[C@@H](C(=O)NCc2ccc(C(=N)N)cc2)n2c1c(Cl)nc(NC1CCCC1)c2=O", "pKi": 6.80}

I = CC1CNc2c(cccc2S(=O)(=O)N[C@@H](Cc2c[nH]c3ccccc23)C(=O)N2CCC(CCO)CC2)C1 (some centres undefined)
II = N=C(N)NS(=O)(=O)c1c(F)c(F)c(F)c(F)c1F
III = Cc1cc(OCC/C=N/N=C(N)N)cc(OS(=O)(=O)c2ccccc2OC(F)(F)F)c1
IV = CC(=N)N1CCC(Oc2ccc(N(C/C=C/c3cc(C(=N)N)ccc3O)C(=O)CCC(=O)O)cc2C(F)(F)F)CC1
## Task Rank ascending by pKi. Record the ranking as a list of labels in the requested order.
## Result IV, I, II, III

* * *

Listing of Ki toward Prothrombin (Homo sapiens), each taken from a published source.
readout kind: Ki (µM)

a = NCc1cccc(-n2nc(C(F)(F)F)cc2C(=O)Nc2ccc(-c3ccccc3S(N)(=O)=O)cc2)c1
b = CC(=N)N1CCC(Oc2ccc3nc(C(C)(C)C)n(Cc4ccc5ccc(C(=N)N)cc5c4)c3c2)CC1
c = C#Cc1cc(O[C@@H]2CCOC2)cc(C(Nc2ccc(C(=N)N)cc2)C(=O)O)c1 (some centres not stated)
## Task Rank descending by Ki: all 3 molecules from above. # respond with the labels, arranged in the requested order
## Result a, c, b

P = CN1CCN(Cc2cc(Cl)c(C(=O)Nc3ccc(Cl)cc3C(=O)Nc3ccc(Cl)cc3)s2)CC1
Q = N=C(N)c1ccc(Oc2cc(NS(=O)(=O)c3ccc(F)cc3)cc(Oc3ccc(C(=N)N)cc3)c2)cc1
## Task Kindly compare P with Q and tell me which has the lower Ki figure. Please respond with the label that marks your chosen entry.
## Result P

1 = N=C(N)NCCCNC(=O)[C@@H]1CS[C@H]2CC[C@@H](NS(=O)(=O)c3cccc4ccccc34)C(=O)N21
2 = COC(=O)c1ccccc1S(=O)(=O)Oc1cc(C)cc(OCC2CCN(C(=N)N)CC2)c1
## Task Ki comparison. Which is larger, 1 or 2 ? Record your answer as the label of the chosen record.
## Result 1
(1: 0.751 µM, 2: 0.028 µM)

a = Cc1cc(N)nc(C)c1CNC(=O)Cn1c(C)cnc(NCCc2ccccc2)c1=O
b = N[C@@H](C(=O)N1CCC[C@H]1C(=O)NCc1c[nH]cn1)C(c1ccccc1)c1ccccc1
## Task Could you point out whether the larger Ki belongs to a or to b ? Answer with the label corresponding to your selection.
## Result b
